Quick list: IC50 per entry.
biological target: NTCP (Homo sapiens, UniProt Q14973); assay: [3H]-TCA uptake assay (NTCP inhibition); assay type: cell-based; settings: given as a range; assay not given
observable: IC50

[
  {
    "compound": "CCC1NC(=O)C(C2OC(OCc3cc(F)c(Cl)cc3Cl)CC2C)N(C)C(=O)C(C(C)C)N(C)C(=O)C(CC(C)C)N(C)C(=O)C(CC(C)C)N(C)C(=O)C(C)NC(=O)C(C)NC(=O)C(CC(C)C)N(C)C(=O)C(C(C)C)NC(=O)C(CC(C)C)N(C)C(=O)CN(C)C1=O (single isomer, unassigned) [Compound 101B]",
    "observed": "1 to 1000 nM"
  },
  {
    "compound": "CCC1NC(=O)C(C2OC(OC(C)c3ccccc3)CC2C)N(C)C(=O)C(C(C)C)N(C)C(=O)C(CC(C)C)N(C)C(=O)C(CC(C)C)N(C)C(=O)C(C)NC(=O)C(C)NC(=O)C(CC(C)C)N(C)C(=O)C(C(C)C)NC(=O)C(CC(C)C)N(C)C(=O)CN(C)C1=O (single isomer, unassigned) [Compound 79A]",
    "observed": "1 to 1000 nM"
  },
  {
    "compound": "CCC1NC(=O)C(C2OC(OCc3c(Cl)cccc3Cl)CC2C)N(C)C(=O)C(C(C)C)N(C)C(=O)C(CC(C)C)N(C)C(=O)C(CC(C)C)N(C)C(=O)C(C)NC(=O)C(C)NC(=O)C(CC(C)C)N(C)C(=O)C(C(C)C)NC(=O)C(CC(C)C)N(C)C(=O)CN(C)C1=O (single isomer, unassigned) [Compound 90A]",
    "observed": "1 to 1000 nM"
  }
]

* * *

Below, each entry is listed alongside its reported pIC50.
Molecular target: NTCP (Homo sapiens)
Sequence (Q14973 1-349): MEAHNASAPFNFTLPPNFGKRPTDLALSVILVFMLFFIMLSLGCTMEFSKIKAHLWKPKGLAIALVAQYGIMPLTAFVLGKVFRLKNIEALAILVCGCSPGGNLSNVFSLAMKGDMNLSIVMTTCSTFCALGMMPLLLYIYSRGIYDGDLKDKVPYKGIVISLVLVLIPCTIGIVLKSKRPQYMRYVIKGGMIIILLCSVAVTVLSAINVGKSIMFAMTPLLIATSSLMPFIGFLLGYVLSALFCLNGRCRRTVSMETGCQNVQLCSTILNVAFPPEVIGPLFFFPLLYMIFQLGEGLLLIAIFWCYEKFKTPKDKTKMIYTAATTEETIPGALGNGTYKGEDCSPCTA
Assay: [3H]-TCA uptake assay (NTCP inhibition)
Format: cell-based
Details: IC50, given as a range, marked * (asterisk not explained)
pIC50: −log10 of the molar value.

[
  {
    "compound": "CCC1NC(=O)C(C2OC(Oc3cc(OC)cc(OC)c3)CC2C)N(C)C(=O)C(C(C)C)N(C)C(=O)C(CC(C)C)N(C)C(=O)C(CC(C)C)N(C)C(=O)C(C)NC(=O)C(C)NC(=O)C(CC(C)C)N(C)C(=O)C(C(C)C)NC(=O)C(CC(C)C)N(C)C(=O)CN(C)C1=O (centres unmarked) [Compound 38A-o]",
    "pIC50": "4.00 to 6.00"
  },
  {
    "compound": "CCC1NC(=O)C(C2OC(SCc3cc(Cl)c(F)cc3Cl)CC2C)N(C)C(=O)C(C(C)C)N(C)C(=O)C(CC(C)C)N(C)C(=O)C(CC(C)C)N(C)C(=O)C(C)NC(=O)C(C)NC(=O)C(CC(C)C)N(C)C(=O)C(C(C)C)NC(=O)C(CC(C)C)N(C)C(=O)CN(C)C1=O (centres unmarked) [Compound 103-s]",
    "pIC50": "4.00 to 6.00"
  }
]
